Value source: patent US7282496B2

# tested_system: MMP-9 (Homo sapiens, UniProt P14780)
# Sequence (P14780 94-707): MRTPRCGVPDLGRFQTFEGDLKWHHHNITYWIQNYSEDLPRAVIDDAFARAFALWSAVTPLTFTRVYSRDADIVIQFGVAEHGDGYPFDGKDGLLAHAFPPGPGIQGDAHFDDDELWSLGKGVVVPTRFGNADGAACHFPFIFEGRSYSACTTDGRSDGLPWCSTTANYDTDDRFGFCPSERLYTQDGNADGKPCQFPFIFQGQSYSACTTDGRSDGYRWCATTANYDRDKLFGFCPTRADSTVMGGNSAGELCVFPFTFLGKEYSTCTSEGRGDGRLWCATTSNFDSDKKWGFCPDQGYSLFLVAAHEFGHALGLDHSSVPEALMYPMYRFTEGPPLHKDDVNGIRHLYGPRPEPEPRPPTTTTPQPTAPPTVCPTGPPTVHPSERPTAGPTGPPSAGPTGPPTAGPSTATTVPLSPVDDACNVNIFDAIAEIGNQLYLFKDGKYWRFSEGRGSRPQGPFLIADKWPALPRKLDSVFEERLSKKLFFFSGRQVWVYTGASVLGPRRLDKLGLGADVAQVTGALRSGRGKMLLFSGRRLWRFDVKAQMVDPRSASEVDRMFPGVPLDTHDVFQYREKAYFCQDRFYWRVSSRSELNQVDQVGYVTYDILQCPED
# assay: MMP-9 inhibition, thiopeptide or fluorescent peptide substrate test procedure
# Type: biochemical
# condition_details: in vitro enzyme inhibition
reported_metric: IC50 (nM)

>>> df
                                   compound  experimental_result
0  C=C=CCOc1ccc(S(=O)(=O)N2Cc3ccccc3N(C(C)=O)CC2C(=O)NO)cc1 (stereo not shown)                    9
1  C=C=CCOc1ccc(S(=O)(=O)NC(C(=O)NO)C(C)C)cc1 (stereo not shown)                   36

P = CC=C=CCOc1ccc(S(=O)(=O)NC(C(=O)NO)C(C)C)cc1 (stereo not shown)
Q = CC=C=CCOc1ccc(S(=O)(=O)N(C)C(C(=O)NO)C(C)C)cc1 (stereo not shown)
Could you tell me which of P and Q has the lower IC50 reading? // output: label of the selected item
Q

====

# tested_system: MMP-13 (Homo sapiens)
# assay: MMP-13 inhibition, thiopeptide or fluorescent peptide substrate test procedure
# Format: biochemical
# condition_details: in vitro enzyme inhibition
reported_metric: IC50 (nM)

Example results:
>>> df
                                   molecule          tested_system  reported_metric  experimental_result
0  C=C=CCOc1ccc(S(=O)(=O)N2Cc3ccccc3N(C(=O)c3ccccc3)CC2C(=O)NO)cc1 (centres unmarked)  MMP-13 (Homo sapiens)             IC50                    4
1  CC=C=CCOc1ccc(S(=O)(=O)N(C)C(C(=O)NO)C(C)C)cc1 (centres unmarked)  MMP-13 (Homo sapiens)             IC50                    6
2  C=C=CCOc1ccc(S(=O)(=O)NC(C(=O)NO)C(C)C)cc1 (centres unmarked)  MMP-13 (Homo sapiens)             IC50                   21
3  C=C=CCOc1ccc(S(=O)(=O)N2Cc3ccccc3N(C(C)=O)CC2C(=O)NO)cc1 (centres unmarked)  MMP-13 (Homo sapiens)             IC50                    7
4  C=C=CCOc1ccc(S(=O)(=O)N2CCSC(C)(C)[C@@H]2C(=O)NO)cc1  MMP-13 (Homo sapiens)             IC50                    4

a = CC=C=CCOc1ccc(S(=O)(=O)NC(C(=O)NO)C(C)C)cc1 (centres unmarked)
b = C=C=CCOc1ccc(S(=O)(=O)N(C)C(C(=O)NO)C(C)C)cc1 (centres unmarked)
c = CC=C=CCOc1ccc(S(=O)(=O)N2Cc3ccccc3N(C(=O)c3ccccc3)CC2C(=O)NO)cc1 (centres unmarked)
// ranking: key=IC50, reverse=True Would you mind listing the labels in the order asked for?
a, c, b
(a: 25 nM, c: 5 nM, b: 3 nM)
